These data points were gathered from ChEMBL document CHEMBL3286254.

experimental.target: Coagulation factor X (Bos taurus, UniProt P00743)
Sequence (P00743 41-180 limits assumed): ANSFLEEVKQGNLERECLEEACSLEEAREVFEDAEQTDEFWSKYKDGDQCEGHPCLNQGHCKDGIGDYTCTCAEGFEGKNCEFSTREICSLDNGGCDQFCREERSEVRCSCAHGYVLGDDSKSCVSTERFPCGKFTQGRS
Sequence (P00743 234-492 limits assumed): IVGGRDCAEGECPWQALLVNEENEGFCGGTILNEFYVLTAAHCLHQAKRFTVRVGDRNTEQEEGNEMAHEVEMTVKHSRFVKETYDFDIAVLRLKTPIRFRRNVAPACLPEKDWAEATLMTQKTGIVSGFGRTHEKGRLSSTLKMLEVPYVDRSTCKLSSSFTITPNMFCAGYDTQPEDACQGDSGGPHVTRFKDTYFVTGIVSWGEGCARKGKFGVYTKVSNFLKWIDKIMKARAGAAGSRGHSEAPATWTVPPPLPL
measurement.protocol: Inhibition of bovine plasma factor 10a using CH3OCO-D-CHA-Gly-Arg-pNA.AcoH substrate

{"query.smiles": "N=C(N)c1ccc(Oc2cc(OCc3ccc(Br)nc3)cc(C(=O)N[C@H]3CC[C@H](N)CC3)c2)cc1", "Ki": "3.68 µM"}
{"query.smiles": "N=C(N)c1ccc(Oc2cc(Oc3ccc(C(=N)N)cc3)cc(C(=O)NC3CCN(CCCN)CC3)c2)cc1", "Ki": "0.415 µM"}
{"query.smiles": "N=C(N)c1ccc(Oc2cc(Oc3ccc(C(=N)N)cc3)cc(C(=O)N3CCc4ccccc4C3)c2)cc1", "Ki": "0.273 µM"}
{"query.smiles": "N=C(N)c1ccc(Oc2cc(NS(=O)(=O)c3ccc(F)cc3)cc(Oc3ccc(C(=N)N)cc3)c2)cc1", "Ki": "1.16 µM"}
{"query.smiles": "N=C(N)c1ccc(Oc2cc(Oc3ccc(C(=N)N)cc3)cc(C(=O)Nc3ccc(F)cc3)c2)cc1", "Ki": "1.88 µM"}
{"query.smiles": "N=C(N)c1ccc(Oc2cc(Oc3ccc(C(=N)N)cc3)cc(C(=O)NCC3CCCCC3)c2)cc1", "Ki": "0.073 µM"}
{"query.smiles": "N=C(N)c1ccc(Oc2cc(Oc3ccc(C(=N)N)cc3)cc(C(=O)O[C@H]3CC[C@H](N)CC3)c2)cc1", "Ki": "0.044 µM"}
{"query.smiles": "N=C(N)c1ccc(Oc2cc(NC(=O)C3CCN(C(=O)CCN)CC3)cc(Oc3ccc(C(=N)N)cc3)c2)cc1", "Ki": "0.095 µM"}

====

experimental.target: UniProt P10635
Sequence (P10635 whole entry): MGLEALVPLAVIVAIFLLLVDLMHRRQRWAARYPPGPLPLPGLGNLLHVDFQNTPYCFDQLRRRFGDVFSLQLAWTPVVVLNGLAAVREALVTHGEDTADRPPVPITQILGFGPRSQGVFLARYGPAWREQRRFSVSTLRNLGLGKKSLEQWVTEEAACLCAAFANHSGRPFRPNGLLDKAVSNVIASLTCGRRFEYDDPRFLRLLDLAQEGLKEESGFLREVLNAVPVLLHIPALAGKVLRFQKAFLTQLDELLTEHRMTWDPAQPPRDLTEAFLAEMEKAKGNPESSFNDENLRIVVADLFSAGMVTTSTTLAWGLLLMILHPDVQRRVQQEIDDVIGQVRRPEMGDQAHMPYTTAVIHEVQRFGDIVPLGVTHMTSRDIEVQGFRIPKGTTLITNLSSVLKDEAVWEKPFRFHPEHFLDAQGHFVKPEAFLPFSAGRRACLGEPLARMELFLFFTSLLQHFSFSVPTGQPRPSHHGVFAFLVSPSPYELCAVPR
pIC50: −log10 of the molar value.
quantity.measured: pIC50

{"query.smiles": "N=C(N)c1ccc(Oc2cc(Oc3ccc(C(=N)N)cc3)cc(C(=O)N[C@H]3CC[C@H](N)CC3)c2)cc1", "result": "< 4.52"}

====

System: PC-3
measurement.protocol: Antiinvasion activity in human PC3 cells assessed as inhibition of FBS-induced cell invaded to lower surface at 10 uM for 3 days by matrigel assay
Assay type: functional
conditions.used: PC-3, 72 h

{"molecule": "N=C(N)c1ccc(Oc2cc(Oc3ccc(C(=N)N)cc3)cc(C(=O)N3CCC4CCCCC4C3)c2)cc1 (stereo not drawn)", "experimental.target": "PC-3", "inhibition at 10 µM": "47%"}
{"molecule": "N=C(N)c1ccc(Oc2cc(Oc3ccc(C(=N)N)cc3)cc(C(=O)N[C@H]3CC[C@H](N)CC3)c2)cc1", "experimental.target": "PC-3", "inhibition at 10 µM": "97%"}
{"molecule": "N=C(N)c1ccc(Oc2cc(Oc3ccc(C(=N)N)cc3)cc(C(=O)O[C@H]3CC[C@H](N)CC3)c2)cc1", "experimental.target": "PC-3", "inhibition at 10 µM": "95%"}
{"molecule": "N=C(N)c1ccc(Oc2cc(OCc3ccc(Br)cc3)cc(C(=O)N[C@H]3CC[C@H](N)CC3)c2)cc1", "experimental.target": "PC-3", "inhibition at 10 µM": "51%"}
{"molecule": "N=C(N)c1ccc(Oc2cc(Oc3ccc(CN)cc3)cc(C(=O)N[C@H]3CC[C@H](N)CC3)c2)cc1", "experimental.target": "PC-3", "inhibition at 10 µM": "54%"}
{"molecule": "N=C(N)c1ccc(Oc2cc(Oc3ccc(C(=N)N)cc3)cc(C(=O)N3CCC(CCN)CC3)c2)cc1", "experimental.target": "PC-3", "inhibition at 10 µM": "54%"}
{"molecule": "N=C(N)c1ccc(Oc2cc(NC(=O)[C@H]3CC[C@H](N)CC3)cc(Oc3ccc(C(=N)N)cc3)c2)cc1", "experimental.target": "PC-3", "inhibition at 10 µM": "86%"}
{"molecule": "N=C(N)c1ccc(Oc2cc(NC(=O)C3CCN(C(=O)CCN)CC3)cc(Oc3ccc(C(=N)N)cc3)c2)cc1", "experimental.target": "PC-3", "inhibition at 10 µM": "37%"}
